system: flavin mononucleotide site of complex I (site IF) plus matrix NAD-linked dehydrogenases (site IF/DH); experiment: Site-specific H2O2 production from site IF/DH in skeletal muscle mitochondria; assay type: biochemical, rat; conditions: primary screen, ∼2.5 µM, average of duplicates
assayMetric: IF/DH (% change from DMSO) (%)

>>> experimentalresult("Cc1ccc(S(=O)(=O)CCC#N)cc1C")
-4.6
>>> experimentalresult("O=C1c2ccccc2C(=O)N1CCc1c[nH]c2ccc(O)cc12")
-33.6
>>> experimentalresult("O=C1N=C(c2ccccc2)C(c2ccccc2)N1 (stereo not shown)")
-7.5
>>> experimentalresult("Nc1nc(-c2ccc(Cl)c(Cl)c2)cs1")
-0.9
>>> experimentalresult("CC(=O)N(C)c1ccc(NC(=O)c2ccc(-c3ccccc3)cc2)cc1")
-3.4
>>> experimentalresult("CC1=Nc2c([nH]c3ccccc23)-c2cc(C)ccc2N1.Cl")
-40.2
>>> experimentalresult("NC(=O)Cc1c[nH]c2cccc(O)c12")
-39.7
>>> experimentalresult("COc1ccc(NCC2CCCCC2)cc1")
-52.2
>>> experimentalresult("O=C(O)CCC(=O)Nc1ccc(-c2nc3ccccc3[nH]2)cc1")
4.1
>>> experimentalresult("O=C(Nc1ccc(O)cc1)c1ccco1")
-52.3

----------
# key: entry, value: IF/DH (% change from DMSO)
system: flavin mononucleotide site of complex I (site IF) plus matrix NAD-linked dehydrogenases (site IF/DH); test: Site-specific H2O2 production from site IF/DH in skeletal muscle mitochondria; format: biochemical, rat; details: primary screen, ∼2.5 µM, average of duplicates
assayMetric: IF/DH (% change from DMSO)

>>> experimentalresult("COc1ccc(NCCNc2ccc(OC)cc2)cc1 [compound 5174308]")
"-73.0%"
>>> experimentalresult("CC(C)c1nnc(NC(=O)c2cccc([N+](=O)[O-])c2)s1 [compound 5210298]")
"-36.0%"
>>> experimentalresult("CN(C)c1nc2ccc(O)cc2s1 [compound 5195231]")
"-166.4%"
>>> experimentalresult("O=[N+]([O-])c1ccc2[nH]c(-c3ccccc3)cc2c1 [compound 5107950]")
"-58.4%"
>>> experimentalresult("O=S(=O)(Nc1ccc(O)c(Br)c1)c1ccc(Cl)cc1 [compound 5158529]")
"-54.3%"
>>> experimentalresult("Nc1cc(C(=O)O)c(N)cc1C(=O)O [compound 5180162]")
"-5.6%"
>>> experimentalresult("CC(C)CSC(CC(=O)O)C(=O)O (stereo not shown) [compound 5152843]")
"-19.0%"
>>> experimentalresult("Cn1c(/C=C/c2ccc(Cl)cc2)nc2ccccc21 [compound 5663561]")
"-9.1%"
>>> experimentalresult("O=C(O)CCC(=O)Nc1ccc(-c2nc3ccccc3o2)cc1 [iGP-2]")
"-2.6%"
>>> experimentalresult("Cc1ccc(S(=O)(=O)c2cc(O)ccc2O)cc1C [compound 5210729]")
"-32.6%"

----------
IIIQo (% change from DMSO) by entry:
target: outer ubiquinone-binding site of complex III (site IIIQo) (Rattus norvegicus, UniProt P00159+P20788); construct: from tissue; host or cells: skeletal muscle mitochondria; experiment: Site-specific H2O2 production from site IIIQo in skeletal muscle mitochondria; format: biochemical; conditions: primary screen, ∼2.5 µM, average of duplicates; 5 mM succinate
assayMetric: IIIQo (% change from DMSO) (%)

>>> experimentalresult("O=C(O)CCC(=O)Nc1ccc(-c2nc3ccccc3o2)cc1")
2.5
>>> experimentalresult("CC1=Nc2c([nH]c3ccccc23)-c2cc(C)ccc2N1.Cl")
-36.6
>>> experimentalresult("Cn1c(/C=C/c2ccc(Cl)cc2)nc2ccccc21")
-4.7
>>> experimentalresult("CCC1CCCCN1C/C=C/c1ccc(N(C)C)cc1 (stereo not shown)")
-11.7
>>> experimentalresult("Nc1cc(S(=O)(=O)c2ccc(O)c(N)c2)ccc1O")
-48.5
>>> experimentalresult("O=C(O)CSc1cccc(C(=O)Nc2ccc(Br)cc2)c1")
-0.0236
>>> experimentalresult("Nc1ccc(-c2nc3ccc(N)cc3[nH]2)cc1")
-73.9
>>> experimentalresult("CCCCSc1nnc2c(n1)[nH]c1ccc(C)cc12")
-13.3
>>> experimentalresult("NC(=O)Cc1c[nH]c2cccc(O)c12")
-48.1
>>> experimentalresult("Nc1cc(C(=O)O)c(N)cc1C(=O)O")
-3.2

----------
The entries below come with measured IIF (% change from DMSO) values attached.
molecular target: flavin site of complex II (site IIF) (Rattus norvegicus, UniProt Q920L2); construct: from tissue; host or cells: skeletal muscle mitochondria; experiment: Site-specific H2O2 production from site IIF in skeletal muscle mitochondria; type: biochemical; conditions: primary screen, ∼2.5 µM, average of duplicates; palmitoylcarnitine
Sequence (Q920L2 35-656): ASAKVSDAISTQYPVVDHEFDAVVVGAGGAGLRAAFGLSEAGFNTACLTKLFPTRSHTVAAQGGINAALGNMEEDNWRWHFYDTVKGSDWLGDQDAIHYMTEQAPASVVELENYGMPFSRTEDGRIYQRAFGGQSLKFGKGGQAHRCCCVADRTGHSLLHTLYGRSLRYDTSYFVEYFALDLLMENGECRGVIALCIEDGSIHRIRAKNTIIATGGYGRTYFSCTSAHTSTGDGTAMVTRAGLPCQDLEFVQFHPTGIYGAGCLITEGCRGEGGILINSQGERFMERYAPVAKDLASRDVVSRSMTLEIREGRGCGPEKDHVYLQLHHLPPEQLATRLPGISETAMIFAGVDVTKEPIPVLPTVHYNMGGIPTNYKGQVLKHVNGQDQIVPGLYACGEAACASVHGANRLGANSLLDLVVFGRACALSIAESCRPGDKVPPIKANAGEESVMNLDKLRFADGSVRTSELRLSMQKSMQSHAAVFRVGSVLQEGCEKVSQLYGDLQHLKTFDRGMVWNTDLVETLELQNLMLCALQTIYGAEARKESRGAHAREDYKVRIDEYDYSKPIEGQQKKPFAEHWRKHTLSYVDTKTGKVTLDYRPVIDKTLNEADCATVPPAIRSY
Sequence (P21913 31-282 partner): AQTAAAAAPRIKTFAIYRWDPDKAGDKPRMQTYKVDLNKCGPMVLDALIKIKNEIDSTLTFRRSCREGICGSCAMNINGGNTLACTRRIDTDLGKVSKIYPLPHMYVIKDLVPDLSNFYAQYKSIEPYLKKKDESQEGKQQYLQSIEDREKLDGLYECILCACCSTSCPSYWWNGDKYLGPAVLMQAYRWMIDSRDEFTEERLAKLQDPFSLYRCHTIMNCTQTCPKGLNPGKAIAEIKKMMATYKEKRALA
Sequence (Q641Z9 30-169 partner limits assumed): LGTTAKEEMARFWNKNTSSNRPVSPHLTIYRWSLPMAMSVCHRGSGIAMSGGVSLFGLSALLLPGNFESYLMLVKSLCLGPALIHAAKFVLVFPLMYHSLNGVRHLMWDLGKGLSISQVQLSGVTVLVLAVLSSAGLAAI
Sequence (Q6PCT8 57-159 partner): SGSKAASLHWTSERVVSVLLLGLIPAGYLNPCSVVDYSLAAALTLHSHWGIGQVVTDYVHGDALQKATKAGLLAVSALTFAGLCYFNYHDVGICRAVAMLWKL
assayMetric: IIF (% change from DMSO) (%)

>>> experimentalresult("O=[N+]([O-])c1ccc2[nH]c(-c3ccccc3)cc2c1")
-18.1
>>> experimentalresult("Cc1ccc(S(=O)(=O)CCC#N)cc1C")
-0.354
>>> experimentalresult("COc1ccc(CNc2cccc(N(C)C)c2)cc1")
-24.5
>>> experimentalresult("CCCCc1c(C(=O)O)cc(C)cc1C(=O)O")
-5.7
>>> experimentalresult("CC(C)c1nnc(NC(=O)c2cccc([N+](=O)[O-])c2)s1")
-17.8
>>> experimentalresult("Nc1nc(-c2ccc(Cl)c(Cl)c2)cs1")
-7.3
>>> experimentalresult("c1coc(CNc2ccc3c(c2)OCO3)c1")
-27.6
>>> experimentalresult("Cc1ccc(NC(=O)c2ccc(C(C)(C)C)cc2)cc1")
-0.156
>>> experimentalresult("O=C(Cc1ccccc1)Nc1cc(C(=O)O)c(NC(=O)Cc2ccccc2)cc1C(=O)O")
-39.7
>>> experimentalresult("CC1=Nc2c([nH]c3ccccc23)-c2cc(C)ccc2N1.Cl")
-51.0
>>> experimentalresult("CC(=O)c1c(C)n(-c2ccccc2)c2ccc(O)cc12")
-26.9
>>> experimentalresult("CCC1CCCCN1C/C=C/c1ccc(N(C)C)cc1 (stereo not drawn)")
-4.3
>>> experimentalresult("COc1ccc(NCCNc2ccc(OC)cc2)cc1")
-50.8
>>> experimentalresult("Nc1cc(C(=O)O)c(N)cc1C(=O)O")
-10.7
>>> experimentalresult("CN(C)c1nc2ccc(O)cc2s1")
-110.1
>>> experimentalresult("O=C(O)CSc1cccc(C(=O)Nc2ccc(Br)cc2)c1")
1.3
>>> experimentalresult("CC1(C)CC(=O)C2=C(C1)Nc1cc(Cl)ccc1S2")
-32.9
>>> experimentalresult("O=C1N=C(c2ccccc2)C(c2ccccc2)N1 (stereo not drawn)")
-24.8
>>> experimentalresult("Nc1ccc(-c2nc3ccc(N)cc3[nH]2)cc1")
-106.6
>>> experimentalresult("CC(=O)N(C)c1ccc(NC(=O)c2ccc(-c3ccccc3)cc2)cc1")
-1.2
>>> experimentalresult("Nc1ccccc1S(=O)(=O)Nc1cccc2cccnc12")
-14.5
>>> experimentalresult("Nc1cc(S(=O)(=O)c2ccc(O)c(N)c2)ccc1O")
-62.7
>>> experimentalresult("COc1ccc(NCC2CCCCC2)cc1")
-25.6
>>> experimentalresult("O=C(O)CCC(=O)Nc1ccc(-c2nc3ccccc3[nH]2)cc1")
3.6
>>> experimentalresult("NC(=O)Cc1c[nH]c2cccc(O)c12")
-58.5
>>> experimentalresult("O=C(O)CCC(=O)Nc1ccc(-c2nc3ccccc3o2)cc1")
2.1
>>> experimentalresult("Cc1ccc(S(=O)(=O)c2cc(O)ccc2O)cc1C")
-53.2
>>> experimentalresult("O=S(=O)(Nc1ccc(O)c(Br)c1)c1ccc(Cl)cc1")
-47.6
>>> experimentalresult("Cc1nc2ccc(Cl)cc2c2c(N)c3ccccc3n12")
-49.0
>>> experimentalresult("O=C1c2ccccc2C(=O)N1CCc1c[nH]c2ccc(O)cc12")
-42.5
>>> experimentalresult("O=C(Nc1ccc(O)cc1)c1ccco1")
-28.0
>>> experimentalresult("Cn1c(/C=C/c2ccc(Cl)cc2)nc2ccccc21")
-11.9
>>> experimentalresult("CC(C)CSC(CC(=O)O)C(=O)O (stereo not drawn)")
-7.8
>>> experimentalresult("COc1ccc(NCc2ccccc2)cc1")
-44.6
>>> experimentalresult("CCCCSc1nnc2c(n1)[nH]c1ccc(C)cc12")
-0.9
>>> experimentalresult("COc1ccc(C(=O)Nc2ccc(S(=O)(=O)Nc3nc(C)cc(C)n3)cc2)c(OC)c1")
-44.3

----------
Recorded IQ H2O2 production with 5 mM Suc (% change at 80 μM), one value per entry.
system: ubiquinone-binding site of complex I (site IQ); test: Site-specific H2O2 production from site IQ in skeletal muscle mitochondria; assay type: biochemical, rat; conditions: 80 μM; 5 mM succinate;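 further: H2O2 from superoxide detected by Amplex UltraRed fluorescence with added superoxide dismutase and horseradish peroxidase, endpoint read 30–40 min after substrate addition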
assayMetric: IQ H2O2 production with 5 mM Suc (% change at 80 μM) (%)

>>> experimentalresult("C=C(C)C(=O)Nc1ccc(-c2nc3ccccc3[nH]2)cc1 [iGP-11]")
-54
>>> experimentalresult("O=C(O)CCC(=O)Nc1ccc(-c2nc3cc(NC(=O)CCC(=O)O)ccc3[nH]2)cc1 [iGP-7]")
3
>>> experimentalresult("O=C(O)CCC(=O)Nc1ccc(-c2nc3ccccc3o2)cc1 [iGP-2]")
-57
>>> experimentalresult("O=C(O)CCC(=O)Nc1cccc(-c2nc3ccccc3[nH]2)c1 [iGP-8]")
-14
>>> experimentalresult("Cc1ccc(NC(=O)CCC(=O)O)cc1 [iGP-19]")
7
